Study system: T1, 4H3172-bH
T1 chain: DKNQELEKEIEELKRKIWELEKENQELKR
Procedure text: two-hybrid library CCNG1;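 also: natural log of median RNA to DNA barcode read ratio; higher means stronger binding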
Measured parameter: interaction score

{"Binder": "DENQELKKEIEELKRENWELKKKIQELER [4H1629-bH]", "interaction score": -0.534}
{"Binder": "DENQELEKKIEELKREIWELKKKNQELER [4H1359-bH]", "interaction score": -0.46}
{"Binder": "DKNQELEKEIEELKRKIWELEKENQELKR [4H3172-bH]", "interaction score": 0.448}
{"Binder": "DENQELEKENEELKREIWELEKKIQELKR [4H1222-bH]", "interaction score": -0.665}
{"Binder": "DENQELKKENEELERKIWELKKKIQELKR [4H1710-bH]", "interaction score": 0.358}

a. DENQELEKKNEELERKIWELKKEIQELER [4H1449-bH]
b. DENQELEKKIEELKRKNWELEKEIQELER [4H1393-bH]
Dear colleague, could you let me know whether a or b has the lower recorded interaction score? Thanks. In your reply, give the label of the chosen option. b
